Cited source: PubChem BioAssay (NCI)

System: CAKI-1 renal
Assay: NCI-60 one-dose screen, 48 h
Conditions: 10 µM
The panel holds about 83,000 compounds, 20% with a hit somewhere; the sample as a whole holds those more often. Active and inactive are the calls of the source. The calls were made as follows: active = growth percent below 10; inactive = the rest.
Respond using exactly one of the listed classes: label 1 = active, label 0 = inactive

| molecule | className |
| --- | --- |
| COc1cc2c3c(n(CCCNCC4CC4)c(=O)c2cc1OC)-c1cc2c(cc1C3=O)OCO2 | label 1 |
| CCc1ccc(NC(=O)N[C@@H](Cc2cccc(F)c2)C(=O)N[C@@H]2C(=O)N3CCC[C@H]3C(=O)N3CCCC[C@H]3C(=O)N[C@@H](CO)C(=O)N3C[C@H](C)C[C@H]3C(=O)O[C@H]2C)c(F)c1 | label 0 |
| CCOC(=O)/C(F)=C/C1CC1CCc1cccc(C(F)(F)F)c1 (stereo not drawn) | label 0 |

Request: Write down the call the test reported for this molecule. Item: CS(=O)c1nccc(-c2c(-c3ccc(F)c(OCCc4ccccc4)c3)nc3sccn23)n1 (stereo not drawn)
Response: label 0

Request: Write down the call the test reported for this molecule. Item: `O=S(=O)(Nc1ccc(C2CC2)cc1)c1ccc(-c2cnc(C3CC3)o2)cc1`
Response: label 0

Request: Write down the call the test reported for this molecule. Item: `COc1ccc2c(c1)oc1c3[nH]c4ccccc4c3c3c(c21)C(=O)N(O)C3=O`
Response: label 0

Request: Write down the call the test reported for this molecule. Item: O=C(COc1ccc(C2SCC(=O)N2c2ccc(F)cc2)cc1)c1ccccc1 (stereo not drawn)
Response: label 0

Request: Write down the call the test reported for this molecule. Item: Cc1ccc(C2CC(c3ccc(Nc4nc(NCCO)nc(Nc5ccc(Cl)cc5)n4)cc3)=Nc3c(N)nc(N)nc3N2)cc1 (stereo not drawn)
Response: label 1

----------
Tested on: SF-295 CNS
Assay: NCI-60 one-dose screen, 48 h (100 = growth as untreated, 0 = no growth, -100 = all killed)
Details: 10 µM unless noted
The panel holds about 83,000 compounds, 20% with a hit somewhere; the sample as a whole holds those more often.
Kindly supply the reported growth values for the records listed here.
One number for each entry, in %.

Solved entries (count: 8):
| molecule | experimentalTarget | growth [%] |
| --- | --- | --- |
| N#Cc1c(NC(=O)c2ccccc2C(F)(F)F)sc2c1CCC(=O)C2 | SF-295 CNS | 11 |
| COc1ccc(C(=O)n2cc(C=O)c3ccccc32)cc1 | SF-295 CNS | 99.6 |
| CCOC(=O)C1=C(C)N=C2Sc3ccccc3N2C1c1ccccc1 (stereo not given) | SF-295 CNS | 98.3 |
| Cc1nn(-c2ccc(Br)cc2)c2nc(CCl)[nH]c(=O)c12 | SF-295 CNS | 100 |
| C=CCn1c(SCC(=O)Nc2cccc(C(=O)/C=C/c3ccc(Br)cc3)c2)nc2ccccc2c1=O | SF-295 CNS | 91.4 |
| N#C/C(=C\c1ccc(N2CCCCC2)cc1)C(=O)Nc1sc2c(c1C#N)CCC2 | SF-295 CNS | 95.8 |
| CC(C)Sc1nc(NC2CC2)c(C#N)c(-c2ccccc2)n1 | SF-295 CNS | 72 |
| COc1ccc(N2CCN(C(=O)CSc3ccc(-c4nc5cc(C)c(C)cc5[nH]4)cn3)CC2)cc1 | SF-295 CNS | 50.2 |

Value sought for every listed molecule: growth.
1. N#Cc1ccc(S(=O)(=O)Nc2ccc(-c3cnc(N)[nH]3)cc2)cc1
2. O=C(CN1C(=O)S/C(=C\c2ccccc2)C1=O)Nc1ccc(C(=O)/C=C/c2cc3ccccc3nc2Cl)cc1
3. COc1cc(C(=O)C[n+]2ccc3ccccc3c2)cc(OC)c1OC
4. N=c1c2cc(-c3ccccc3)oc2ncn1/N=C/c1ccccc1
5. O=c1cc(-c2ccccc2)nc2sc(-c3c[nH]c4ccc(F)cc34)nn12

Response:
1: 96.9; 2: 81; 3: 100; 4: 84.3; 5: 82.9
